- measurement_target: recombinant extracellular portion of human Na+/K+-ATPase α2 subunit (Homo sapiens, UniProt P50993)
- Sequence (P50993 with tags, fused parts or gaps): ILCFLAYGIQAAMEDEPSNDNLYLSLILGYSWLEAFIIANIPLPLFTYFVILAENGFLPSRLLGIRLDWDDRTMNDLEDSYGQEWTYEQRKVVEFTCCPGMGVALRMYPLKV
- assay_info: SPR (Biacore 3000) binding, α2 subunit
- conditions: α2, SPR, KD = kd/ka; read-out: Equilibrium dissociation (KD)
property_measured: pKd
Please report pKd as the negative decimal logarithm of the molar concentration, giving only the number.

Value of pKd reported for the compound C[C@]12CC[C@H](OC(=O)NC3CCNCC3)C[C@H]1CC[C@@H]1[C@@H]2CC[C@]2(C)[C@@H](c3ccc(=O)oc3)CC[C@]12O is 5.35

---

- Test system: NCI-H1299 cells
- assay_info: MTT cell proliferation assay, NCI-H1299
- Type: cell-based
- conditions: Homo sapiens; NCI-H1299, 72 h treatment; read-out: IC50 values, inhibiting proliferation
property_measured: IC50 (nM)
Give the number; nM is assumed, so skip it.

Value of IC50 reported for the compound C[C@]12CC[C@H](OC(=O)NC3CCNCC3)C[C@H]1CC[C@@H]1[C@@H]2CC[C@]2(C)[C@@H](c3ccc(=O)oc3)CC[C@]12O [BF211] is 40.1

Value of IC50 reported for the compound C[C@]12CC[C@H](O)C[C@H]1CC[C@@H]1[C@@H]2CC[C@]2(C)[C@@H](c3ccc(=O)oc3)CC[C@]12O [BF, Bufalin, reference compound] is 88.3

---

- assay_info: in vivo
- conditions: male, ICR, mouse, ip
property_measured: LD50 (mg/kg)
Give the number; mg/kg is assumed, so skip it.

Value of LD50 reported for the compound C[C@]12CC[C@H](OC(=O)NC3CCNCC3)C[C@H]1CC[C@@H]1[C@@H]2CC[C@]2(C)[C@@H](c3ccc(=O)oc3)CC[C@]12O [BF211] is 14.8

---

- Tested on: A549 cells
- assay_info: MTT cell proliferation assay, A549
- Type: cell-based
- conditions: Homo sapiens, 48 h treatment, read-out: IC50, cell viability (MTT)
I'd be grateful if you could share measured IC50 for these entries.
Give the number; nM is assumed, so skip it.

Value of IC50 reported for the molecule C[C@]12CC[C@H](OC(=O)NC3CCNCC3)C[C@H]1CC[C@@H]1[C@@H]2CC[C@]2(C)[C@@H](c3ccc(=O)oc3)CC[C@]12O is 4.01

Value of IC50 reported for the molecule C[C@]12CC[C@H](O)C[C@H]1CC[C@@H]1[C@@H]2CC[C@]2(C)[C@@H](c3ccc(=O)oc3)CC[C@]12O [BF, Bufalin, reference compound] is 10.2
